Reported pIC50 values are given for each entry in this list.
# Test system: KRAS WT (Homo sapiens (Human), UniProt P01116+P62937)
# Sequence (P01116-2 other isoform, or with tags, fused parts or gaps): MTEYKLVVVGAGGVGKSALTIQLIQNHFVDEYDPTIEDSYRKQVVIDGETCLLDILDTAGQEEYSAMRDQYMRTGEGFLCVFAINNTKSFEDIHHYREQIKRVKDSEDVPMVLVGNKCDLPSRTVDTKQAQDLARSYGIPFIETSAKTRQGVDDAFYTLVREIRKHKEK
# Sequence (P62937 whole entry): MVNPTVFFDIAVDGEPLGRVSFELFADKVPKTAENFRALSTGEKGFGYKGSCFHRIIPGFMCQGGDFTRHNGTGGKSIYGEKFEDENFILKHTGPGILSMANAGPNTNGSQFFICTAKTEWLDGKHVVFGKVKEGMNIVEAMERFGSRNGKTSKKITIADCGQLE
# Protocol notes: Ras-Raf (BRAF RBD) disruption / FRET / MOA assay, KRAS WT
# Format: biochemical
# Assay setup: read-out: IC50* KRAS WT FRET data
pIC50: −log10 of the molar value.

Compound: CO[C@@H](C)c1ncccc1-c1nc2ccc3cn2c1CC(C)(C)COC(=O)[C@@H]1CCCN(N1)C(=O)[C@@H](NC(=O)[C@H](C(C)C)N(C)C(=O)[C@H]1CCN(C(=O)C#CC(C)(C)N(C)C)C1)Cc1cccc-3c1 [Example A311]
pIC50: < 5.00
--
Compound: C=CC(=O)N1CC2(C1)CN(C(=O)N(C)[C@H](C(=O)N[C@H]1Cc3nc(cs3)-c3ccc4c(c3)c(c(-c3cccnc3[C@H](C)OC)n4CC)CC(C)(C)COC(=O)[C@@H]3CCCN(N3)C1=O)C(C)C)C2 (atropisomer, axis not shown) [Example A419]
pIC50: 6.00 to 7.00
--
Compound: C=CC(=O)N1CC[C@H](C(=O)N(C)[C@H](C(=O)N[C@H]2Cc3cc(O)cc(c3)-c3ccc4nc(-c5cccnc5[C@H](C)OC)n(c4c3)CC(C)(C)COC(=O)[C@@H]3CCCN(N3)C2=O)C(C)C)C1 [Example A242]
pIC50: < 5.00
--
Compound: CCn1c(-c2cccnc2[C@H](C)OC)c2c3cc(ccc31)-c1cnc(o1)C[C@H](NC(=O)[C@@H](COC1CN(C(=O)C#CC(C)(C)N(C)C)C1)C(C)C)C(=O)N1CCC[C@H](N1)C(=O)OCC(C)(C)C2 (atropisomer, axis not shown) [Example A649]
pIC50: < 5.00
--
Compound: CCn1c(-c2cccnc2[C@H](C)OC)c2c3cc(ccc31)-c1cccc(c1)C[C@H](NC(=O)[C@H](C(C)C)N(C)C(=O)[C@H]1CCN(C(=O)C#C[C@]3(C)CCCN3C)C1)C(=O)N1CCC[C@H](N1)C(=O)OCC(C)(C)C2 [Example A317]
pIC50: 5.00 to 6.00
--
Compound: CCn1c(-c2cccnc2[C@H](C)OC)c2c3cc(ccc31)-c1cccc(c1)C[C@H](NC(=O)[C@H](C(C)C)N1CO[C@@]3(CCN(C(=O)C#CC(C)(C)N4CCC4)C3)C1=O)C(=O)N1CCC[C@H](N1)C(=O)OCC(C)(C)C2 (atropisomer, axis not shown) [Example A733]
pIC50: < 5.00
--
Compound: C=CC(=O)N1CC[C@H](C(=O)N(C)[C@H](C(=O)N[C@@H]2C(=O)N3CCC[C@H](N3)C(=O)OCC(C)(C)Cc3c(-c4cncnc4)n(CC)c4ccc(cc34)-c3cccc(c3)[C@H]2OC)C(C)C)C1 [Example A273]
pIC50: < 5.00
--
Compound: C=CC(=O)N1CCO[C@H]2CCN(C(=O)N(C)[C@H](C(=O)N[C@H]3Cc4nc(cs4)-c4ccc5c(c4)c(c(-c4cccnc4[C@H](C)OC)n5CC)CC(C)(C)COC(=O)[C@@H]4CCCN(N4)C3=O)C(C)C)C[C@H]21 (atropisomer, axis not shown) [Example A580]
pIC50: 6.00 to 7.00
--
Compound: C=CC(=O)N(C)[C@@H]1C[C@@H](C)N(C(=O)N(C)[C@H](C(=O)N[C@H]2Cc3nc(cs3)-c3ccc4c(c3)c(c(-c3cccnc3[C@H](C)OC)n4CC)CC(C)(C)COC(=O)[C@@H]3CCCN(N3)C2=O)C(C)C)C1 (atropisomer, axis not shown) [Example A634]
pIC50: 6.00 to 7.00
--
Compound: CCn1c(-c2cccnc2[C@H](C)OC)c2c3cc(ccc31)-c1cccc(c1)C[C@H](NC(=O)[C@H](C(C)C)N(C)C(=O)[C@H]1CCN(C(=O)C#CC(C)(C)N(C)C)C1)C(=O)N1CCC[C@H](N1)C(=O)OCC(C)(C)C2 (atropisomer, axis not shown) [Example A290]
pIC50: 5.00 to 6.00
--
Compound: C=CC(=O)N1CC(OCC(C(=O)N[C@H]2Cc3cccc(c3)-c3ccc4c(c3)c(c(-c3cccnc3[C@H](C)OC)n4CC)CC(C)(C)COC(=O)[C@@H]3CCCN(N3)C2=O)C(C)C)C1 (mixture of isomers) [Example A484]
pIC50: < 5.00
--
Compound: C=CC(=O)N1CC[C@H](C(=O)N(C)[C@H](C(=O)N[C@H]2Cc3cc(O)cc(c3)-c3ccc4c(c3)c(c(-c3ccccc3CCOC)n4CC)CC(C)(C)COC(=O)[C@]3(C)CCCN(N3)C2=O)C(C)C)C1 [Example A219]
pIC50: < 5.00
--
Compound: C=CC(=O)N1CCN(C(=O)N(C)[C@H](C(=O)N[C@H]2Cc3cc(O)cc(c3)-c3ccc4c(c3)c(c(-c3ccccc3CCOC)n4CC)CC(C)(C)COC(=O)[C@@H]3CCCN(N3)C2=O)C(C)C)C[C@@H]1COC [Example A125]
pIC50: 5.00 to 6.00
--
Compound: C=CC(=O)N1CC[C@H](C(=O)N(C)[C@H](C(=O)N[C@H]2Cc3cccc(c3)-c3ccc4c(c3)c(c(-c3cccnc3[C@H](C)OC)n4CC#N)CC(C)(C)COC(=O)[C@@H]3CCCN(N3)C2=O)C(C)C)C1 [Example A510]
pIC50: 5.00 to 6.00
--
Compound: C=CC(=O)N1CC[C@H](C(=O)N(C)[C@H](C(=O)N[C@H]2Cc3cccc(c3)-c3ccc4c(c3)c(c(-c3cccnc3[C@@H]3CCCO3)n4CC)CC(C)(C)COC(=O)[C@@H]3CCCN(N3)C2=O)C(C)C)C1 (atropisomer, axis not shown) [Example A512]
pIC50: 5.00 to 6.00
--
Compound: CCn1c(-c2cccnc2[C@H](C)OC)c2c3cc(ccc31)-c1cc(O)cc(c1)C[C@H](NC(=O)[C@H](C(C)C)N(C)C(=O)[C@H]1CCN(C(=O)C#CCOC)C1)C(=O)N1CCC[C@H](N1)C(=O)OCC(C)(C)C2 [Example A266]
pIC50: 6.00 to 7.00
